Values compiled from ChEMBL document CHEMBL4673232.

assay: Lipophilicity, logD of compound; format: physicochemical; settings: octanol/water
Measurement Type: logD

CNC(=O)c1nn(C)c2ccc(Nc3nccc(-n4cc(CN(C)C)cn4)n3)cc12 : 1.8
CNC(=O)c1ncn2ccc(Nc3nccc(-n4cc(CN(C)C)cn4)n3)cc12 : 1.4
Cc1nn(-c2ccnc(Nc3ccc4c(c3)c(Cl)c(C)n4C)n2)cc1CN1CC(O)C1 : 3.9
CNC(=O)c1nn(C)c2ccc(Nc3nccc(-n4cc(CN(C)C)c(OC)n4)n3)cc12 : 2.3

List the reported logD of each molecule below.
1. Cc1nnc(-c2nc(C)n3ccc(Nc4nccc(-c5cc(CN(C)C)n(C)n5)n4)cc23)o1
2. CNC(=O)c1nn(C)c2c(C)cc(Nc3nccc(-c4cc(CN(C)C)n(C)n4)n3)cc12
3. CNC(=O)c1nn(C)c2c(C)cc(Nc3nccc(-n4cc(CN(C)C)cn4)n3)cc12

Data returned:
1: 2.4; 2: 2.6; 3: 2.3
